Data provenance: PubChem BioAssay AID430

measurement.notes: cytotoxicity in HPDE-C7 cells, cell-based, fluorescence, HTS (AID 430);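 further: cells exposed to compound for 48 hours before viability readout; 0% = vehicle and 100% = reference cytotoxic drug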
experimental.conditions: HPDE-C7 pancreatic duct cells viability, at 10 µM, stronger effect = higher value
Hit rate of the full screen: of about 63,000 compounds, about 1,100 (1.7%) were called active. This excerpt belongs to a sample that is enriched for actives. Entries with a potency or affinity are not part of this list.
experimental.endpoint: cytotoxicity (%)
Number only, in %; omit the unit.

# example entries with known answers
compound=Cc1ccc(S(=O)(=O)NCCCN2CCOCC2)cc1C experimental_endpoint=cytotoxicity measure_unit=% recorded_value=-25
compound=O=C(CCCOc1ccc(Cl)cc1Cl)N1CCN(c2ccccn2)CC1 experimental_endpoint=cytotoxicity measure_unit=% recorded_value=3.1
compound=CC(NC(=O)Nc1nccs1)(C(F)(F)F)C(F)(F)F experimental_endpoint=cytotoxicity measure_unit=% recorded_value=-4.1
compound="OCc1nn2c(c1Br)NC(c1ccccc1)CC2C(F)(F)F (stereo unspecified)" experimental_endpoint=cytotoxicity measure_unit=% recorded_value=-8.4
compound=O=C(NCC(F)(F)F)Nc1nnc(C(F)(F)F)s1 experimental_endpoint=cytotoxicity measure_unit=% recorded_value=12.3

# cytotoxicity lookup, item `COc1ccccc1NC(=O)c1cc(Sc2nncn2C)nc2ccccc12` 4.7

---

measurement.notes: cytotoxicity in HPDE-C7 cells, cell-based, fluorescence, HTS (AID 430)
experimental.conditions: HPDE-C7 pancreatic duct cells viability, at 10 µM, stronger effect = higher value
The campaign covered roughly 63,000 compounds. About 1,100 (1.7%) were called active. What follows is part of a selection rich in actives, with near analogues and random picks from the rest. Results with a measured potency or affinity are listed apart.
experimental.endpoint: cytotoxicity (%)
Number only, in %; omit the unit.

molecule="CCc1cc(=O)oc2cc(OC(C)C(=O)O)c(Cl)cc12 (stereo unspecified)" measure_unit=% recorded_value=1.5
molecule=Cc1cc(NC(=O)COC(=O)c2ccc(S(=O)(=O)N3CCCc4ccccc43)cc2)no1 measure_unit=% recorded_value=58.6
molecule="O=C(NCc1ccco1)C(c1cccs1)N(Cc1ccccc1)C(=O)Cn1nnc2ccccc21 (stereo unspecified)" measure_unit=% recorded_value=3.4
molecule=COC(=O)Nc1ccc(S(=O)(=O)N2CCCc3ccccc32)cc1 measure_unit=% recorded_value=56.8
molecule=CC(=O)Nc1ccc(S(=O)(=O)N2CCCc3ccccc32)cc1 measure_unit=% recorded_value=37.8

Please turn your attention to the following entry.
# cytotoxicity lookup, item `Cc1cc(NC(=O)COC(=O)c2cccc(S(=O)(=O)N3CCOCC3)c2)no1` -14.7

---

measurement.notes: cytotoxicity in HPDE-C7 cells, cell-based, fluorescence, HTS (AID 430)
experimental.conditions: HPDE-C7 pancreatic duct cells viability, at 10 µM
Screen size: about 63,000 compounds; about 1,100 (1.7%) were called active. No stated cut-off is given here; in the data, active means cytotoxicity above about 50%; inactive means the rest. Many of the other results were omitted from the sample, so actives are more common in it than they were. Results with a measured potency or affinity are listed apart.
Respond only with the outcome that fits, drawn from active, inactive

// known answers, use as guide
compound=c1ccc(CN2CCN(c3ncnc4c3[nH]c3ccccc34)CC2)cc1 label_value=inactive
compound=Cc1ccc(-c2csc3nc(C)n(-n4c(C)ccc4C)c(=O)c23)o1 label_value=inactive
compound=CCc1nc(N2CCCC2)c(C#N)c2c1CCCC2 label_value=inactive

So what was the verdict on `C=CCn1c(SCc2csc(C)n2)nc2scc(-c3ccc(C)o3)c2c1=O` in this test? active

So what was the verdict on `CC(C)c1nnc(NC(=O)c2c(O)c3cccc4c3n(c2=O)CCC4)s1` in this test? inactive

So what was the verdict on N#CC(c1nc2ccccc2nc1N1CCCC1)S(=O)(=O)c1ccccc1 (configuration not stated) in this test? inactive

So what was the verdict on CC1=C(C(=O)OCC2CCCO2)C(c2cccc(O)c2)NC(=O)N1 (configuration not stated) in this test? inactive

So what was the verdict on `Cc1ccc2[nH]c3c(N4CCCCCC4)ncnc3c2c1` in this test? inactive

So what was the verdict on `C=C(c1ccc(O)cc1)c1ccc(O)cc1` in this test? inactive

So what was the verdict on `CC(C)Cc1nc(N2CCCCC2)c(C#N)c2c1CCC2` in this test? inactive

So what was the verdict on `Oc1c(CN2CCN(c3ccccn3)CC2)cc(Cl)c2cccnc12` in this test? inactive

So what was the verdict on CCOC(=O)C1CCCN(C(=O)CN2CCN(Cc3ccc(Cl)cc3)C2=O)C1 (configuration not stated) in this test? inactive

So what was the verdict on COc1ccccc1NC(=O)C1(C)Cc2ccccc2C(=O)O1 (configuration not stated) in this test? inactive

So what was the verdict on `c1csc(CSc2nc3ccccc3s2)c1` in this test? inactive

---

measurement.notes: cytotoxicity in HPDE-C7 cells, cell-based, fluorescence, HTS (AID 430);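 further: cells exposed to compound for 48 hours before viability readout; 0% = vehicle and 100% = reference cytotoxic drug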
experimental.conditions: HPDE-C7 pancreatic duct cells viability, at 10 µM, stronger effect = higher value
About 1,100 (1.7%) of roughly 63,000 compounds were called active. The list comes from a sample in which actives are over-represented; it also holds close analogues and randomly drawn compounds. Measured potencies and affinities stand elsewhere.
# y = cytotoxicity below 10% (exclusive); n = cytotoxicity at/above 10%

// known answers, use as guide
compound="COc1ccc(N2CCN(CC(O)c3c[nH]c4ccc(OC)cc34)CC2C)cc1 (stereo unspecified)" label_value=n
compound="COc1ccc(NC(=O)CS(=O)CC(=O)Nc2cc(Cl)ccc2OC)cc1 (stereo unspecified)" label_value=y
compound=COc1ccc(-c2[nH]ncc2-c2ccc(Cl)cc2)c(O)c1 label_value=n
compound=Cc1ccc2[nH]c3c(c2c1)CN(C(=O)CN1CCN(c2ccccc2)CC1)CC3 label_value=n

Dear colleague, could you confirm whether cytotoxicity of `Cc1ccc2[nH]c3c(c2c1)CN(C(=O)CN1CCN(c2ccccc2F)CC1)CC3` falls below 10%? Thanks. n

Dear colleague, could you confirm whether cytotoxicity of `O=C(Cc1ccc(Cl)cc1)Nc1ccccc1CO` falls below 10%? Thanks. y

Dear colleague, could you confirm whether cytotoxicity of `CCOc1ccc(-c2[nH]ncc2-c2ccc(OC)c(OC)c2)c(O)c1` falls below 10%? Thanks. n

Dear colleague, could you confirm whether cytotoxicity of `O=C(c1ccc2c(c1)OCO2)N1CCCc2ccccc21` falls below 10%? Thanks. y

Dear colleague, could you confirm whether cytotoxicity of `CCN1CCN(c2cc(=O)n(C3CCCCC3)c(=O)[nH]2)CC1` falls below 10%? Thanks. y

Dear colleague, could you confirm whether cytotoxicity of `c1ccc(COc2ccc(OCCCn3cncn3)cc2)cc1` falls below 10%? Thanks. y

Dear colleague, could you confirm whether cytotoxicity of C=CCOC(=O)C1=C(C)OC(N)=C(C#N)C1c1ccccc1F (stereo unspecified) falls below 10%? Thanks. y

---

Catalogue of cytotoxicity values
measurement.notes: cytotoxicity in HPDE-C7 cells, cell-based, fluorescence, HTS (AID 430);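 further: cells exposed to compound for 48 hours before viability readout; 0% = vehicle and 100% = reference cytotoxic drug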
experimental.conditions: HPDE-C7 pancreatic duct cells viability, at 10 µM, stronger effect = higher value
In all, about 63,000 compounds went through this assay and about 1,100 (1.7%) were called active. Only a selection was taken, and actives are over-represented in it overall. Measured potencies and affinities stand elsewhere.
Number only, in %; omit the unit.

# example entries with known answers
compound=CCCn1c(NCc2ccco2)nc2ccccc21 experimental_endpoint=cytotoxicity measure_unit=% recorded_value=2
compound=Cc1cc(=O)[nH]c2ccccc12 experimental_endpoint=cytotoxicity measure_unit=% recorded_value=-2.8
compound=CN(C)C=Nc1ncc2c([nH]c3ccccc32)c1C#N experimental_endpoint=cytotoxicity measure_unit=% recorded_value=15.4

# cytotoxicity lookup, item `CCNC(=O)CSc1nc2ccccc2c(=O)n1OC` -1

# cytotoxicity lookup, item `CCCOc1ccc(CSc2nnc(CCC)n2N)cc1` -13.5

# cytotoxicity lookup, item `COc1ccc(N(C)C(=O)Nc2ccc3c(c2)nnn3C)cc1` -17.6

# cytotoxicity lookup, item `CCN1CCN(C(=O)c2nn(-c3ccc(OC)cc3)c(=O)c3c2c2ccccc2n3C)CC1` -10.7

# cytotoxicity lookup, item `CCCn1c(CNc2ccccc2O)nc2ccccc21` 14.5

# cytotoxicity lookup, item `CCn1cnc2c1c(=O)n(CC(=O)Nc1cc(C)on1)c(=O)n2Cc1ccccc1` 0

---

measurement.notes: cytotoxicity in HPDE-C7 cells, cell-based, fluorescence, HTS (AID 430);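 further: cells exposed to compound for 48 hours before viability readout; 0% = vehicle and 100% = reference cytotoxic drug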
experimental.conditions: HPDE-C7 pancreatic duct cells viability, at 10 µM, stronger effect = higher value
About 1,100 (1.7%) of roughly 63,000 compounds were called active. This excerpt belongs to a sample that is enriched for actives. Measured potencies and affinities stand elsewhere.
Catalogue of cytotoxicity values
Number only, in %; omit the unit.

# example entries with known answers
compound=C=CCn1c(SCC(=O)NC(=O)NCc2ccco2)nc2sc(C)c(C)c2c1=O experimental_endpoint=cytotoxicity recorded_value=-0.5
compound="CC(C)CCn1nc(C(=O)OC(C)C(=O)NC(N)=O)c2ccccc2c1=O (stereo unspecified)" experimental_endpoint=cytotoxicity recorded_value=-13.9
compound=C=CCn1c(SCC(=O)N2CCN(C(=O)c3ccco3)CC2)nc2sc(CC)cc2c1=O experimental_endpoint=cytotoxicity recorded_value=-4.1
compound=CC(=O)c1ncnn1CC(=O)c1ccc(Cl)cc1Cl experimental_endpoint=cytotoxicity recorded_value=13.6
compound=C/C(=N\O)c1c(C)c2ccccc2n1C experimental_endpoint=cytotoxicity recorded_value=-0.6

Please turn your attention to the following entry.
# cytotoxicity lookup, item `C=CCn1c(SCC(=O)NC(=O)NCc2ccco2)nc2sc(CC)cc2c1=O` 57.6
